- Tested on: human red blood cells (hRBCs)
- PROTOCOL NOTES: Hemolysis assay
- STUDY CONDITIONS: 4% (v/v) erythrocytes in PBS, peptides 1–512 µg/mL, 1 h at 37 °C, hemoglobin at 540 nm, 100% = 1% Triton-X 100; ≥ means less than 5% hemolysis up to 512 µg/mL
Where a SMILES comes first, the peptide text is derived from it. The star is where a group is joined. Octanoyl = CCCCCCCC(=O)*
PROPERTY MEASURED: MHC5 (minimum hemolytic concentration causing 5% hemolysis of hRBCs) (µg/mL)
Please reply with the bare figure in µg/mL and do not write the unit itself.

Query MHC5 (minimum hemolytic concentration causing 5% hemolysis of hRBCs) on human red blood cells (hRBCs) for CCCCCCCC(=O)NCCCC[C@H](NC(=O)[C@@H](NC(=O)[C@H](CCCNC(=N)N)NC(=O)[C@H](CCC(N)=O)NC(=O)[C@@H](NC(=O)[C@@H](NC(=O)[C@H](CCCNC(=N)N)NC(=O)[C@@H](N)CCCCN)[C@@H](C)CC)C(C)C)[C@@H](C)CC)C(=O)N[C@@H](CC(=O)O)C(=O)N[C@@H](Cc1ccccc1)C(=O)N[C@@H](CC(C)C)C(=O)N[C@@H](CCCNC(=N)N)C(N)=O [VIII, [Lys^ε(C8)]^8KR12-NH2] (H-KRIVQRIK(Octanoyl)DFLR-NH2) 64

----------
- System: S. aureus ATCC 33591 (MRSA)
- Type: cell-based, Staphylococcus aureus
- STUDY CONDITIONS: ATCC 33591, 18 h
Where a SMILES comes first, the peptide text is derived from it. The star is where a group is joined. Benzoyl(4-Ph) = O=C(c1ccc(-c2ccccc2)cc1)*; Octanoyl = CCCCCCCC(=O)*; X1 = CCCCCCC(CCCC)C(=O)*; Butyryl = CCCC(=O)*
PROPERTY MEASURED: MIC S. aureus 33591 (µg/mL)
Respond with the bare value in µg/mL.

CCCCCCCC(=O)N[C@@H](CCCCN)C(=O)N[C@@H](CCCCN)C(=O)N[C@@H](CCCNC(=N)N)C(=O)N[C@H](C(=O)N[C@H](C(=O)N[C@@H](CCC(N)=O)C(=O)N[C@@H](CCCNC(=N)N)C(=O)N[C@H](C(=O)N[C@@H](CCCCN)C(=O)N[C@@H](CC(=O)O)C(=O)N[C@@H](Cc1ccccc1)C(=O)N[C@@H](CC(C)C)C(=O)N[C@@H](CCCNC(=N)N)C(N)=O)[C@@H](C)CC)C(C)C)[C@@H](C)CC [IV, C8^α-Lys-KR12-NH2] (Octanoyl-KKRIVQRIKDFLR-NH2); 64
CCCCCCC(CCCC)C(=O)N[C@@H](CCCCN)C(=O)N[C@@H](CCCNC(=N)N)C(=O)N[C@H](C(=O)N[C@H](C(=O)N[C@@H](CCC(N)=O)C(=O)N[C@@H](CCCNC(=N)N)C(=O)N[C@H](C(=O)N[C@@H](CCCCN)C(=O)N[C@@H](CC(=O)O)C(=O)N[C@@H](Cc1ccccc1)C(=O)N[C@@H](CC(C)C)C(=O)N[C@@H](CCCNC(=N)N)C(N)=O)[C@@H](C)CC)C(C)C)[C@@H](C)CC (some centres unmarked) [XIII, 2-Buthyloctanoic acid-KR12-NH2] (X1-KRIVQRIKDFLR-NH2); 4
CCCCCCCC(=O)N[C@@H](CCCCN)C(=O)N[C@@H](CCCNC(=N)N)C(=O)N[C@H](C(=O)N[C@H](C(=O)N[C@@H](CCC(N)=O)C(=O)N[C@@H](CCCNC(=N)N)C(=O)N[C@H](C(=O)N[C@@H](CCCCN)C(=O)N[C@@H](CC(=O)O)C(=O)N[C@@H](Cc1ccccc1)C(=O)N[C@@H](CC(C)C)C(=O)N[C@@H](CCCNC(=N)N)C(N)=O)[C@@H](C)CC)C(C)C)[C@@H](C)CC [II, C8^α-KR12-NH2] (Octanoyl-KRIVQRIKDFLR-NH2); 4

Which MIC S. aureus 33591 is reported for this compound? CC[C@H](C)[C@H](NC(=O)[C@H](CCCNC(=N)N)NC(=O)[C@H](CCC(N)=O)NC(=O)[C@@H](NC(=O)[C@@H](NC(=O)[C@H](CCCNC(=N)N)NC(=O)[C@H](CCCCN)NC(=O)c1ccc(-c2ccccc2)cc1)[C@@H](C)CC)C(C)C)C(=O)N[C@@H](CCCCN)C(=O)N[C@@H](CC(=O)O)C(=O)N[C@@H](Cc1ccccc1)C(=O)N[C@@H](CC(C)C)C(=O)N[C@@H](CCCNC(=N)N)C(N)=O [XXI, 4-Phenylbenzoic acid-KR12-NH2] ({Benzoyl(4-Ph)}-KRIVQRIKDFLR-NH2) 4

Record request: MIC S. aureus 33591 value, item CCCC(=O)NCCCC[C@H](NC(=O)CCC)C(=O)N[C@@H](CCCNC(=N)N)C(=O)N[C@H](C(=O)N[C@H](C(=O)N[C@@H](CCC(N)=O)C(=O)N[C@@H](CCCNC(=N)N)C(=O)N[C@H](C(=O)N[C@@H](CCCCN)C(=O)N[C@@H](CC(=O)O)C(=O)N[C@@H](Cc1ccccc1)C(=O)N[C@@H](CC(C)C)C(=O)N[C@@H](CCCNC(=N)N)C(N)=O)[C@@H](C)CC)C(C)C)[C@@H](C)CC [X, C4^α, C4^ε-KR12-NH2] (Butyryl-K(Butyryl)RIVQRIKDFLR-NH2) 512

Data provenance: paper PMC10053710
